I'd appreciate it if you could supply melting point values for the items below.

Use these answered entries as a reference point.
>>> reported("N=C(N)Nc1nc(CCCCNc2c(NCCCCc3csc(NC(=N)N)n3)c(=O)c2=O)cs1")
"228 to 229 °C"
>>> reported("COc1ccccc1-c1nc(-c2cccnc2)c(C)[nH]1")
"198 to 200 °C"
>>> reported("O=C(O)CCCCCC(=O)CCc1ccc(Cl)cc1")
"93 to 96 °C"
>>> reported("CC(C)[C@H](NC(=O)[C@@H](C)c1ccc(Nc2nc(C(F)(F)F)cs2)cc1)C(=O)O")
"99 to 101 °C"
>>> reported("N#CC(CCOc1ccccc1)(Cn1cncn1)c1ccccc1 (stereo not drawn)")
"64 to 66 °C"
>>> reported("O=C1c2ccccc2-n2cnc(-c3nc(CN4Cc5ccccc5C4)no3)c2[C@@H]2CCN12")
"210 to 213 °C"
>>> reported("CN1C(O)=C(C(=O)Nc2ccc(Cl)cc2)c2ccsc2S1(=O)=O")
"202 to 204 °C"
>>> reported("Cn1ccnc1NC(=S)Nc1ccccc1")
"170 to 172 °C"

// for each molecule in input: emit melting point
1. CC1(C)CC(=O)C(C(=O)Nc2cccc(C(F)(F)F)c2)C(=O)C1
2. O=c1n(CCCCN2CCN(c3ccccc3)CC2)nc2n1-c1ccccc1OC2
3. C=CCOC(=O)c1c(C)c(OC)cc(O[Si](C)(C)C(C)(C)C)c1C=O
4. O=C1c2cc([N+](=O)[O-])ccc2OC12CC2
5. COc1ccc2c(c1)CC(C(=O)O)N2C(C)=O (stereo not drawn)
6. CCSC1(SCC)C(O)CC2C3CCC4=CC(=O)C=CC4(C)C3(F)C(OC(C)=O)CC21C (stereo not drawn)
7. Cc1ccc(CN2CCN(c3cc(-c4ccccc4)ccn3)CC2)cc1
8. Nn1c(C2CC2)n[nH]c1=O

1: 116 to 117 °C; 2: 85 to 87 °C; 3: 94 to 95 °C; 4: 107 to 110 °C; 5: 164 to 167 °C; 6: 181 to 182 °C; 7: 103 °C; 8: 183 °C

List melting point for every entry below, keeping the order given.
1. CO[C@H]1CC[C@H](C(=O)N2CCC(c3[nH]nc4c3C(=O)c3c(NC(=O)NN5CCOCC5)cccc3-4)CC2)CC1
2. NC(=O)c1cncc(N)c1

178 to 180 °C
263 to 264 °C

---

READOUT_LABEL: melting point (°C)
Numbers only, in °C.

These recorded examples may help you get a feel for the data.
>>> reported("COC(=O)C(C)c1ccc2nc3ccc(Cl)cn3c(=O)c2c1 (configuration not stated)")
173
>>> reported("CC(C)(C)C1=NN(c2ccc(C(=O)O)cc2)C(c2ccc(O)cc2)C1 (configuration not stated)")
259

Field: next molecule
Recorded melting point for C=CCSc1nc(O)ns1 , please?
84

---

Kindly supply the reported melting point values for the records listed here.

Consider the worked cases shown below.
>>> reported("COc1cc(C=CC(=O)OC2CC3CC(OC(=O)Cc4cccc(O)c4)CC2N3C)cc(OC)c1OC (stereo not drawn)")
"53 to 57 °C"
>>> reported("COc1cccc(SCCC(=O)O)c1F")
"72 to 74 °C"

# next molecule below
Please look up its melting point: Cc1cc2c(s1)S(=O)(=O)N(C(C)(C)C)C2=O
80 to 81 °C
